Each recorded value in this set is attributed to patent US20190225691A1.

- system_tested: T1, human PD-L1 ECD-His (human, UniProt Q9NZQ7 19-238)
- T1 construct: extracellular domain; Analyte in all SPR and BLI runs; also called hPD-L1_ECD-His; hPD-L1 ECD-His; not shown: His tag
- test: SPR, 25 C, antibody captured by anti-human IgG Fc, hPD-L1_ECD-His analyte, 1:1 fit
parameter: Kd (nM)
# value in nM; strip the unit string

# Kd lookup, item PL3 (full-length, N297A mutant human IgG1) (antibody, V domains shown) VH: QVQLVQSGAEVKKPGSSVKVSCKASGGTFSSYTISWVRQAPGQGLEWMGRIIPILGIANYAQKFQGRVTITADKSTSTAYMELSSLRSEDTAVYYCARSRDGYSFGAFDIWGQGTLVTVSS VL: QSVVTQPPPVSGAPGQRVTISCTGSSSNIGAGYDVHWYQQLPGTAPKLLIYGNSNRPSGVPDRFSGSKSGTSASLAITGLQAEDEADYYCQSYDSSLSAPVVFGGGTKLTVLG
11.9

Another binder to check: PL12 (full-length, N297A mutant human IgG1) (antibody, V domains shown) VH: QVQLVQSGAEVKKPGSSVKVSCKASGGTFSSYAISWVRQAPGQGLEWMGRIIPILGIANYAQKFQGRVTITADKSTSTAYMELSSLRSEDTAVYYCARGIGSYSFGAFDIWGQGTMVTVSS VL: QSVLTQPPSVSGAPGQRVTISCTRSSSNIGAGHDVHWYQQLPGTAPKLLIYGNSNRPSGVPDRFSGSKSGTSASLAITGLQAEDGADYYCQSYDSSLTGVVFGGGTKLTVLG
6.68

More entries:
# get_value(readout='Kd', item= PL2 (full-length, N297A mutant human IgG1) (antibody, V domains shown) VH: EVQLVQSGGGLVKPGGSLRLSCAASGFTFSSYTMNWVRQAPGKGLEWVSSISSGSDYLYYADSVKGRFTISRDNAKNSLYLQMNSLRAEDTAVYYCARNELRWYPQAGAFDIWGQGTMVTVSS VL: QSVVTQPPSMSAAPGQNVTISCSGSSSYIESSYVSWYQQLPGTAPRLLIYDDDMRPSGIPDRFSGSKSGTSATLAITGLQTGDEADYYCEIWDSGLGGVFGGGTKLTVLS )
8.72
